Ref: patent US20260174875A1

Here the recorded pEC50 is given for each entry.
study.system: human GLP-1 receptor (hGLP-1R) (Homo sapiens, UniProt P43220)
Construct: expressed in transfected cells
Sequence (P43220 24-463): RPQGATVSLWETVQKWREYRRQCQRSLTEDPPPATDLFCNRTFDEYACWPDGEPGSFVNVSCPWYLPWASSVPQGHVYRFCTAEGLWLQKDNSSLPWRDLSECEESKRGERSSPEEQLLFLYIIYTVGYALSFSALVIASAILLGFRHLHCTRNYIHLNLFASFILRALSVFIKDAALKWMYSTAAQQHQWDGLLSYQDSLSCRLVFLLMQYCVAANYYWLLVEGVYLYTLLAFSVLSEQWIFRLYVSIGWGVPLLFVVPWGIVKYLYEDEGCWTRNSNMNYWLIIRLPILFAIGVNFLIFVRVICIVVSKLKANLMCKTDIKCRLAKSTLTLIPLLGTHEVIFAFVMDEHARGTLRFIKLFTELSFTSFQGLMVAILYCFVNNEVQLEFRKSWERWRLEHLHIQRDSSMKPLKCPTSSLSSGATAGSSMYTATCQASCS
test.name: GLP-1 receptor assay, method A (CRE-luciferase reporter, BHK cells)
Format: cell-based
test.context: method A, absence of HSA; read-out: hGLP-1R Potency, no HSA, EC50
Numbered stars: 1 amine (or outer) side, 2 acyl side, 3 side chain; on linkers, the order of the positions; unused ones are H or OH. Square brackets hold non-standard residues; d marks the D form. Side chains are listed from the residue outwards. * marks the point of attachment. C18 diacid = O=C(O)CCCCCCCCCCCCCCCCC(=O)*; γGlu = O=C(O)[C@H](CCC(=O)[*:2])N[*:1]; AEEA = NCCOCCOCC(=O)O; Aib = CC(C)(N)C(=O)O
pEC50 (log units): -log10 of the concentration in mol/L.

Sample answers from the record:
Which value of pEC50 has been reported for H[Aib]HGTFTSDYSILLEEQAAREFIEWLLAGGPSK([AEEA-AEEA-γGlu-C18 diacid])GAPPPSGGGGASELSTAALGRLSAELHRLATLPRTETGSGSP-NH2 [Compound 14] in the records? 11.69

Which value of pEC50 has been reported for H[Aib]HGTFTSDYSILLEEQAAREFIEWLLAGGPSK([AEEA-AEEA-γGlu-C18 diacid])GALAQTLGTNEASHLSTAQTQRLSAELHELATLPRTETGSGSP-NH2 [Compound 45] in the records? 11.32

Which value of pEC50 has been reported for Y[Aib]EGTFTSDYSILLEEQAAREFIEWLLAGGPSGGEASHLSTAQTQRLSAELHK([AEEA-AEEA-γGlu-C18 diacid])LATLPRTETGSGSP-NH2 [Compound 74] in the records? 10.53

Which value of pEC50 has been reported for Y[Aib]EGTFTSDYSILLEEQAAREFIEWLLAGGPSSGAGQAPGQAPLASHLSTAQTARLSAELHK([AEEA-AEEA-γGlu-C18 diacid])LATLPRTETGSGSP-NH2 [Compound 98] in the records? 10.88

***
Which value of pEC50 has been reported for H[Aib]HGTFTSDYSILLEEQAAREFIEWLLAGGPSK([AEEA-AEEA-γGlu-C18 diacid])GALAQTLGTNEASELSTAALGRLSAELHRLATLPRTETGSGSP-NH2 [Compound 44] in the records? 11.43
